Attribution: the supplement of paper PMC7125110

B1: glmS ribozyme (parent)
chain: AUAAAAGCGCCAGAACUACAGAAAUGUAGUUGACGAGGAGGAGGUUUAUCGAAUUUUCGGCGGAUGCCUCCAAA

# Variants of: B1
# Experiment Notes: self-cleavage kobs at 10000 uM GlcN6P; higher = faster cleavage; RNA array
# Measurement Setup: with glucosamine-6-phosphate
Fewer inactive variants are shown than the library holds.
Property Measured: self-cleavage kobs at 10000 uM GlcN6P (s⁻¹)
Provide the reading as a plain figure in s⁻¹.

Ask: I am curious: what self-cleavage kobs at 10000 uM GlcN6P value has been reported for `AUAAAAGCGCCAGAACUACAGAAAUGUAGUUGACGACGAGGAGGUUUAUCGAAAUUUCGGCGGAUGCCUCCAAA` ?
Reply: 4.2e-05

Ask: What about `AUAAAAGCGCCAGACCUACAGAAAUGUAGGUGACGAGGUGGAGGUUUAUCGAAUUUUCGGCGGAUGCCUCCAAA` ?
Reply: 0.0346

Ask: What about `AUAAAAGCGCCAGAACUACAGAAAUGUAGUUGACGAGGUGGGGGUUUAUCGAAUUGUCGGCGGCUGCCUCCAAA` ?
Reply: 4.69e-05

Ask: What about `AUAAAAGCGCCAGAACUACAGAAAUGUAGUUAACGAGGAGGAGGUUUAUCGAAUUUUCGGCGGAUGCCUGCAAA` ?
Reply: 0.00011

Ask: What about `AUAAAAGCGCCAGAACUACAGAAAUGUAGUUGACGAGGAGGAGGUUUAUCGGAUUUUCGGCGGAUGGCUCCAAA` ?
Reply: 9.62e-05

Ask: What about `AUAAAAGCGCCAGAACUACAGAAAUGUAGUUGACGAGGAGGAGGUUUAUCGAAUCUUCGGCGGAUGCCUCCAAA` ?
Reply: 0.0349

Ask: What about `AUAAAAGCGCAAGAACUACAGAAAUGUAGUUGACGAGGAGGAGGUUUAUCGAAUUUUCGGCGGAUACCUCCAAA` ?
Reply: 6.59e-05

Ask: What about `AUAAAAGCGCCAGAACUACAGAAAUGUAGUUGACGAGGAGAAGGUUUAUCGAAUUUUCGGCGGAUGCCUCUAAA` ?
Reply: 0.00026

Ask: What about `AUAAAAGCGCCAGAACUACAGAAAUGUAGUUGACGAGGAGGAGGUAUAUCGAAUUUUCGGCGGAUGCCCCCAAA` ?
Reply: 0.00162

Ask: What about `AUAAAGGCGCCAGAACUACAGAAAUGUAGUUGACGAGGAGGGGGUUUAUCGAAUUUUCGGCGGAUGCCUCCAAA` ?
Reply: 0.000569
